- TESTED_ON: T1, Rluc-ADGRG2-ΔGPS-β C614A (mouse, UniProt Q8CJ12-3 38-995, C614A)
- T1 construct: ADGRG2 (GPR64), mouse, ADGRG2-ΔGPS-β: the entire ECD removed; source: HEK293, transfected, on cells; not shown: Rluc, N-terminal, kept
- METHOD_DESCRIPTION: FRET or BRET; HEK293 cells transfected with Rluc-ADGRG2-ΔGPS-β WT or mutants, stimulated by increasing concentrations of FITC-conjugated VPM-p15; saturation curves fitted with GraphPad; each experiment repeated 6 times
- PARTICULARS: one partner purified
Non-standard residues stand in square brackets, D forms with d. Primed or numbered codes have the meaning given here. No end group written: not given here. Phe(4-Me) = Cc1ccc(C[C@H](N)C(=O)O)cc1; FITC′ = not defined here
PROPERTY_LABEL: EC50 (nM)
Give the value in nM but do not write nM after it.

Summary for this binder, VS[Phe(4-Me)]GILLDLSRTSLP-{FITC′} [FITC-conjugated VPM-p15 (ADGRG2 Stachel peptide p15 T1V/F3Phe(4-Me))] : EC50 is 1290
